Assignment: determine reported pIC50 for the given compounds.
# ASSAY_TARGET: UniProt P36888
# Sequence (P36888 27-993): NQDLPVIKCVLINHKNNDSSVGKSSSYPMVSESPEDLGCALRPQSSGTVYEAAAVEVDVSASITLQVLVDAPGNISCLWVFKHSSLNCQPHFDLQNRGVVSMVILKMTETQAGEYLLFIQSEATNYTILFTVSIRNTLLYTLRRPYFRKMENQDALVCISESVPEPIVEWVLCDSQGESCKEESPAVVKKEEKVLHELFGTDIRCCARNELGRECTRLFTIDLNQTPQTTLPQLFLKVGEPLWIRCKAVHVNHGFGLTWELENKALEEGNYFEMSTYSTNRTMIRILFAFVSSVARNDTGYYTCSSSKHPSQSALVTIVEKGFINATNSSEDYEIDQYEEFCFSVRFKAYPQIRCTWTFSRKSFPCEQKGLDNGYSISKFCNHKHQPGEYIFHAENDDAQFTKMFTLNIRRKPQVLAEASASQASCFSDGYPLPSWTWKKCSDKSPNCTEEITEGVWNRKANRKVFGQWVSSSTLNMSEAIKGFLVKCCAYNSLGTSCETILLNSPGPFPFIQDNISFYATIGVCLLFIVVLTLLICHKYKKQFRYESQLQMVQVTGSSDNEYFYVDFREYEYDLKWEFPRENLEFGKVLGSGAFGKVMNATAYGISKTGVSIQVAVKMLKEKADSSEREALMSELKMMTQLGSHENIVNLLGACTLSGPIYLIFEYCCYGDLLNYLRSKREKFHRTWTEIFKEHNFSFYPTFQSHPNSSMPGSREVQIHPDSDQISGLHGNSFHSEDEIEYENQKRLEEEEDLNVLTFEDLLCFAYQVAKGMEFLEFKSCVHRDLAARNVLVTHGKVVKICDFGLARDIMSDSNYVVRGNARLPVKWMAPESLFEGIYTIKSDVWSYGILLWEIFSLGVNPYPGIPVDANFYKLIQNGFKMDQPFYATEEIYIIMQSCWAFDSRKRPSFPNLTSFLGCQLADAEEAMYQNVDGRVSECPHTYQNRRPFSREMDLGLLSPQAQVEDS
pIC50: −log10 of the molar value.

COMPOUND: COC[C@H](C)Nc1ncc2c(-c3ccnc(N4CCOCC4)c3)cc([C@H]3CC[C@@H](O)CC3)n2n1
OBSERVED_VALUE: 6.00 to 7.00

Quick batch: pIC50 for everything below.
1. COCC(C)Nc1ncc2c(-c3ccc(CN4CCCC4)cc3)cc(C3CCC(O)CC3)n2n1 (stereo not shown)
2. C[C@@H](CC(F)(F)F)Nc1ncc2c(-c3ccnc([S@@](C)(=N)=O)c3)cc([C@H]3CC[C@H](O)CC3)n2n1

Result block:
1: 6.00 to 7.00; 2: ≥ 7.00

Query block: Using known records, supply pIC50 for CNC(=O)c1cc(-c2cc([C@H]3CC[C@H](O)CC3)n3nc(N[C@@H](C)CC(F)(F)F)ncc23)cc(C)n1
Result block: 6.00 to 7.00

###

What pIC50 was measured for each of the following?
# ASSAY_TARGET: UniProt P36888
# Sequence (P36888 27-993): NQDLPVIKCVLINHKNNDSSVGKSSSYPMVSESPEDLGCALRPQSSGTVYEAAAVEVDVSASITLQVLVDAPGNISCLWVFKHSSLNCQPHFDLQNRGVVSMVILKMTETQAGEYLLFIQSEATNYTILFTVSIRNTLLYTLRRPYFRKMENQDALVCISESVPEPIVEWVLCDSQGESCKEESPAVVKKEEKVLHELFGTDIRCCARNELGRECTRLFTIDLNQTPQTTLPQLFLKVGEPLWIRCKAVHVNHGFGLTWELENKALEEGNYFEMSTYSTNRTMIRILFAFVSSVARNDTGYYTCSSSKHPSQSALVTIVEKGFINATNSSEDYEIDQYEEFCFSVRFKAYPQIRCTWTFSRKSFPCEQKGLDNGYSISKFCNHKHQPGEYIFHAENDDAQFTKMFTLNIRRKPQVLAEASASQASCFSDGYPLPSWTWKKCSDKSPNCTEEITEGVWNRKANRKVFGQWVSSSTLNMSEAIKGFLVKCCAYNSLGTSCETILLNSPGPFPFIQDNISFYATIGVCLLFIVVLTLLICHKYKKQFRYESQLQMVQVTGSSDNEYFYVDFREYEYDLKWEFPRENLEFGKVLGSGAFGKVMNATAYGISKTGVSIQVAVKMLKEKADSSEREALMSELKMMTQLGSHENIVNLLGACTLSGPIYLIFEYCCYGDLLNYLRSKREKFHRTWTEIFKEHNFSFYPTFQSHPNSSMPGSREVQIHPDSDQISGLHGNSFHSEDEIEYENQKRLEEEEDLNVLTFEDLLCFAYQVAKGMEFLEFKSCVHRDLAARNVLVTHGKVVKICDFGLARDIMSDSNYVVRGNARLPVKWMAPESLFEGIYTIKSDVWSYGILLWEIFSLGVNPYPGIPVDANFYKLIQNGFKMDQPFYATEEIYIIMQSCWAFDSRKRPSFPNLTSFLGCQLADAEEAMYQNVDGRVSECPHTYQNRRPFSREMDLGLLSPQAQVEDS
pIC50: −log10 of the molar value.

Would you please look over these solved cases?
MOLECULE: COC[C@H](C)Nc1ncc2c(-c3cncc(C#N)c3)cc([C@H]3CC[C@H](O)CC3)n2n1
pIC50: 5.00 to 6.00

MOLECULE: COC[C@H](C)Nc1ncc2c(-c3cnn(C4(C(=O)N5CCOCC5)CC4)c3)cc([C@H]3CC[C@H](O)CC3)n2n1
pIC50: 5.00 to 6.00

Look up pIC50 for the entries below, preserving their order.
1. [2H]C([2H])([2H])OCC(C)Nc1ncc2c(-c3cnn(C4COC4)c3)cc(C3CCC(O)CC3)n2n1 (centres unmarked)
2. COC[C@H](C)Nc1ncc2c(-c3cnn(C(C)(C)C(=O)C4C[C@H]5COC[C@H]5C4)c3)cc([C@H]3CC[C@H](O)CC3)n2n1 (some centres unmarked)
3. C[C@@H](CC(F)(F)F)Nc1ncc2c(-c3cncc(C(=O)N4CCOCC4)c3)cc([C@H]3CC[C@H](O)CC3)n2n1
4. COC[C@H](C)Nc1ncc2c(N3CCCC3=O)cc([C@H]3CC[C@H](O)CC3)n2n1
5. COC[C@H](C)Nc1ncc2c(-c3cnn([C@@H]4CO[C@H]5OCC[C@H]54)c3)cc([C@H]3CC[C@H](O)CC3)n2n1
6. C[C@@H](CC1CC1)Nc1ncc2c(-c3ccc(CN4CCN(C)CC4)cc3)cc([C@H]3CC[C@H](O)CC3)n2n1
7. COC[C@H](C)Nc1ncc2c(-c3ccnc(F)c3)cc([C@H]3CC[C@H](O)CC3)n2n1
8. COC[C@H](C)Nc1ncc2c(-c3cnn(CCC#N)c3)cc([C@H]3CC[C@](C)(O)CC3)n2n1

Result block:
["6.00 to 7.00", "5.00 to 6.00", "6.00 to 7.00", "5.00 to 6.00", "6.00 to 7.00", "≥ 7.00", "5.00 to 6.00", "6.00 to 7.00"]
